Biological target: human Edg-2 receptor (LPA1 receptor) (Homo sapiens)
Experiment: Edg-2 receptor inhibition by FLIPR calcium fluorescence measurement (LPA-mediated calcium liberation)
Details: CHO cells stably overexpressing human Edg-2 receptor; LPA 18:1 100 nM; fluo-4 fluorescence; triplicate; read-out: Inhibitory concentrations IC50 for inhibition of the Edg-2 receptor
Description: A) Determination of Edg-2 Receptor Inhibition by Fluorescence Imaging Plate Reader (FLIPR) Measurements The inhibition of the Edg-2 receptor (LPA1 receptor) by the compounds of the invention was quantified by the inhibitory effect on the LPA-mediated calcium liberation in a cell-based calcium fluorescence assay by use of Chinese hamster ovarian (CHO) cells in which the human Edg-2 receptor was stably overexpressed (FIp-In system, Invitrogen). […]
So I've got a bunch of compounds here, and I need their IC50 values.

Worked examples, 3 compounds total:
>  <Compound>
COc1ccc(F)cc1-c1cc(C(=O)NC2(C(=O)O)Cc3ccccc3C2)ccc1OC

>  <IC50>
< 0.1 µM

$$$$
>  <Compound>
COc1ccc(C(=O)NC2(C(=O)O)Cc3ccccc3C2)cc1-c1cccc(OC(F)(F)F)c1

>  <IC50>
< 0.1 µM

$$$$
>  <Compound>
COc1ccc(C(=O)NC2(C(=O)O)Cc3ccccc3C2)cc1-c1ccsc1Cl

>  <IC50>
1 to 30 µM

$$$$

For each of the compounds below, state IC50.
1. COc1ccc(C(=O)NC2(C(=O)O)Cc3ccccc3C2)cc1-c1ccc2occc2c1
2. COCCOCCOc1cc(C(=O)NC2(C(=O)O)Cc3ccccc3C2)ccc1OC

["0.1 to 1 µM", "1 to 30 µM"]

###

So I've got a bunch of compounds here, and I need their IC50 values.
Target: human Edg-2 receptor (LPA1 receptor) (Homo sapiens)
Experiment: Edg-2 receptor inhibition by FLIPR calcium fluorescence measurement (LPA-mediated calcium liberation)
Assay type: cell-based
Conditions: CHO cells stably overexpressing human Edg-2 receptor; LPA 18:1 100 nM; fluo-4 fluorescence; triplicate; read-out: Inhibitory concentrations IC50 for inhibition of the Edg-2 receptor

>  <Compound>
COCc1cccc(-c2cc(C(=O)NC3(C(=O)O)Cc4ccccc4C3)ccc2OC)c1

>  <System>
human Edg-2 receptor (LPA1 receptor) (Homo sapiens)

>  <Reading>
< 100 nM

$$$$

For each of the compounds below, state IC50.
1. COc1ccc(C(=O)NC2(C(=O)O)Cc3ccccc3C2)cc1OCCC(C)C
2. COc1ccc(C(=O)NC2(C(=O)O)Cc3cscc3C2)cc1OCCc1cccc(C)c1
3. COc1ncc(C(=O)NC2(C(=O)O)Cc3ccccc3C2)cc1-c1cccc(SC)c1

1. 1000 to 30000 nM
2. < 100 nM
3. < 100 nM

For each of the compounds below, state IC50.
1. COc1ccc(C(=O)NC2(C(=O)O)Cc3ccccc3C2)cc1OCCCC1CCCCC1
2. COc1ccc(C(=O)NC2(C(=O)O)Cc3ccccc3C2)cc1-c1ccc(Cl)c(Cl)c1
3. Cc1cccc(CCOc2cc(C(=O)NC3(C(=O)O)Cc4ccccc4C3)ccc2OCCN(C)C)c1
4. COc1ccc(C(=O)NC2(C(=O)O)Cc3ccccc3C2)cc1OCCc1ccccc1C
5. COc1ccc(C(=O)NC2(C(=O)O)Cc3ccccc3C2)cc1-c1cncc(C#N)c1
6. COc1ccc(C(=O)NC2(C(=O)O)Cc3ccccc3C2)cc1OCCc1ccsc1
7. Cc1cccc(CCOc2cc(C(=O)NC3(C(=O)O)Cc4ccccc4C3)ccc2N)c1
8. COc1ccc(C(=O)NC2(C(=O)O)Cc3ccccc3C2)cc1C(O)c1ccccc1C (stereo not drawn)

["1000 to 30000 nM", "< 100 nM", "100 to 1000 nM", "1000 to 30000 nM", "< 100 nM", "100 to 1000 nM", "100 to 1000 nM", "1000 to 30000 nM"]

###

Molecular target: UniProt Q92633
Assay: Edg-2 receptor inhibition by FLIPR calcium fluorescence measurement (LPA-mediated calcium liberation)
Format: cell-based
Conditions: CHO cells stably overexpressing human Edg-2 receptor; LPA 18:1 100 nM; fluo-4 fluorescence; triplicate; read-out: Inhibitory concentrations IC50 for inhibition of the Edg-2 receptor
pIC50: −log10 of the molar value.
Attribute measured: pIC50

>  <Smiles input>
COc1ccc(C(=O)NC2(C(=O)O)Cc3ccccc3C2)cc1-c1cccc(OCC2CC2)c1

>  <pIC50>
4.52 to 6.00

$$$$
>  <Smiles input>
CCS(=O)(=O)c1cccc(-c2cc(C(=O)NC3(C(=O)O)Cc4ccccc4C3)ccc2OC)c1

>  <pIC50>
6.00 to 7.00

$$$$
>  <Smiles input>
Cc1cccc(CCOc2cc(C(=O)NC3(C(=O)O)Cc4ccccc4C3)ccc2F)c1

>  <pIC50>
6.00 to 7.00

$$$$

# context switch: different compound, same pIC50
Field request: pIC50 | item: `COc1ccc(C(=O)NC2(C(=O)O)Cc3ccccc3C2)cc1OCCc1nonc1C` 4.52 to 6.00

###

Target: human Edg-2 receptor (LPA1 receptor) (Homo sapiens, UniProt Q92633)
Sequence (Q92633 whole entry): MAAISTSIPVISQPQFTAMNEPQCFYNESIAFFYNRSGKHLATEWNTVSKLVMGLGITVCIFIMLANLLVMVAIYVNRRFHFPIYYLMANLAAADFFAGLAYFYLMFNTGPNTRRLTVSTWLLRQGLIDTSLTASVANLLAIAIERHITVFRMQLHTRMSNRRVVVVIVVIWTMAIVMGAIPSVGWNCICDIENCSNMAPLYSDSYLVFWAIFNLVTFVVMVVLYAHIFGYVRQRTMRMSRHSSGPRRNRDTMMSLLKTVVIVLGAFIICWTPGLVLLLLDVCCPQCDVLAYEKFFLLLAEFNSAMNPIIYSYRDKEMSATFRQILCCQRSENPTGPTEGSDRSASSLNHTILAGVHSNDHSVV
Test: Edg-2 receptor inhibition by FLIPR calcium fluorescence measurement (LPA-mediated calcium liberation)
Conditions: CHO cells stably overexpressing human Edg-2 receptor; LPA 18:1 100 nM; fluo-4 fluorescence; triplicate; read-out: Inhibitory concentrations IC50 for inhibition of the Edg-2 receptor
pIC50: −log10 of the molar value.
Attribute measured: pIC50

Worked examples, 2 molecules total:
>  <Molecule>
COc1ccc(C(=O)NC2(C(=O)O)Cc3ccccc3C2)cc1OC/C=C/c1ccccc1 [Example 45]

>  <Attribute measured>
pIC50

>  <Reading>
4.52 to 6.00

$$$$
>  <Molecule>
COc1ccc(C(=O)NC2(C(=O)O)Cc3ccccc3C2)cc1-c1ccc2c(ccn2C)c1 [Example 330]

>  <Attribute measured>
pIC50

>  <Reading>
4.52 to 6.00

$$$$

For each of the molecules below, state pIC50.
1. COc1ccc(C(=O)NC2(C(=O)O)Cc3ccccc3C2)cc1OCCc1cccc(CC(N)=O)c1 [Example 248]
2. Cc1cccc(CCOc2cc(C(=O)NC3(C(=O)O)Cc4ccccc4C3)ccc2O)c1 [Example 254]

1: > 7.00; 2: 4.52 to 6.00

###

Target: human Edg-2 receptor (LPA1 receptor) (Homo sapiens, UniProt Q92633)
Assay: Edg-2 receptor inhibition by FLIPR calcium fluorescence measurement (LPA-mediated calcium liberation)
Settings: CHO cells stably overexpressing human Edg-2 receptor; LPA 18:1 100 nM; fluo-4 fluorescence; triplicate; read-out: Inhibitory concentrations IC50 for inhibition of the Edg-2 receptor
Excerpt: A) Determination of Edg-2 Receptor Inhibition by Fluorescence Imaging Plate Reader (FLIPR) Measurements The inhibition of the Edg-2 receptor (LPA1 receptor) by the compounds of the invention was quantified by the inhibitory effect on the LPA-mediated calcium liberation in a cell-based calcium fluorescence assay by use of Chinese hamster ovarian (CHO) cells in which the human Edg-2 receptor was stably overexpressed (FIp-In system, Invitrogen). […]
pIC50: −log10 of the molar value.
Attribute measured: pIC50

Worked examples, 6 compounds total:
>  <Compound>
COc1ccc(C(=O)NC2(C(=O)O)Cc3ccccc3C2)cc1OCCc1nc(-c2ccccc2)oc1C

>  <Reading>
4.52 to 6.00

$$$$
>  <Compound>
Cc1cccc(CCOc2cc(C(=O)NC3(C(=O)O)Cc4ccccc4C3)ccc2OCCC(C)(C)C)c1

>  <Reading>
6.00 to 7.00

$$$$
>  <Compound>
COc1ccc(C(=O)NC2(C(=O)O)Cc3ccccc3C2)cc1OCCCCCC(=O)O

>  <Reading>
4.52 to 6.00

$$$$
>  <Compound>
COc1ccc(C(=O)NC2(C(=O)O)Cc3ccccc3C2)cc1-c1cc(F)c(F)c(F)c1

>  <Reading>
> 7.00

$$$$
>  <Compound>
COc1ncc(C(=O)NC2(C(=O)O)Cc3ccccc3C2)cc1-c1ccc(Cl)cc1

>  <Reading>
> 7.00

$$$$
>  <Compound>
COc1ccc(C(=O)NC2(C(=O)O)Cc3ccccc3C2)cc1OCc1cc(C)ccc1C

>  <Reading>
4.52 to 6.00

$$$$

For each of the compounds below, state pIC50.
1. COc1ccc(C(=O)NC2(C(=O)O)Cc3ccc(C#N)cc3C2)cc1OCCc1cccc(C)c1 (centres unmarked)
2. COc1ccc(C(=O)NC2(C(=O)O)Cc3ccccc3C2)cc1-c1cccc(SC)c1

1. > 7.00
2. > 7.00

###

So I've got a bunch of compounds here, and I need their IC50 values.
Target: human Edg-2 receptor (LPA1 receptor) (Homo sapiens)
Experiment: Edg-2 receptor inhibition by FLIPR calcium fluorescence measurement (LPA-mediated calcium liberation)
Conditions: CHO cells stably overexpressing human Edg-2 receptor; LPA 18:1 100 nM; fluo-4 fluorescence; triplicate; read-out: Inhibitory concentrations IC50 for inhibition of the Edg-2 receptor

>  <Compound>
Cc1cccc(CCOc2cc(C(=O)NC3(C(=O)O)Cc4ccccc4C3)ccc2[S+](C)[O-])c1 (stereo not shown) [Example 5]

>  <IC50>
1000 to 30000 nM

$$$$
>  <Compound>
COc1ccc(C(=O)NC2(C(=O)O)Cc3ccccc3C2)cc1Cc1ccc(C)cc1 [Example 245]

>  <IC50>
< 100 nM

$$$$
>  <Compound>
COc1ccc(C(=O)NC2(C(=O)O)Cc3ccccc3C2)cc1OCC1CCC(C(=O)O)C1 (stereo not shown) [Example 78]

>  <IC50>
1000 to 30000 nM

$$$$

# context switch: different compound, same IC50
Report IC50 for COc1ccc(C(=O)NC2(C(=O)O)Cc3ccccc3C2)cc1SCCc1cccc(Cl)c1 [Example 181] tested on human Edg-2 receptor (LPA1 receptor) (Homo sapiens). < 100 nM
